- ASSAY OVERVIEW: endothelial E-selectin expression blockers – imaging, HUVEC, immunofluorescence, MLSMR starter and 10KST1 sets, primary screen (AID 487);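 note: signal is fraction of cell area covered by stained E-selectin grains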
- CONDITION NOTES: HUVEC TNFalpha-induced E-selectin immunofluorescence imaging, at 2 µM
Calls of active or inactive are those of the source.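 Rule for the calls: active = visually confirmed hit in the image check and inhibition above 20%; inconclusive = visually confirmed hit but inhibition not above 20%; inactive = no visual hit in the image check.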
Possible outcomes: active, inactive

compound="Cc1ccc2[nH]c(=O)c(CN(CCc3ccccc3)Cc3nnnn3CC3CCCO3)cc2c1 (stereo unspecified)" label_value=active
compound="Cc1ccc(NC2=NC(c3ccccc3)n3c(nc(C)cc3=O)N2)cc1 (stereo unspecified)" label_value=inactive
compound=Cc1ccc(N2CCN(C(=O)c3ccccc3Br)CC2)c(C)c1 label_value=inactive
compound="CN1Cc2c(N)cccc2C(c2ccccc2)C1 (stereo unspecified)" label_value=inactive
compound=C=C(C)CSc1nnc(-c2cccc(S(=O)(=O)N(C)C)c2)n1-c1cc(OC)ccc1OC label_value=inactive
compound=Cc1c(C(=O)O)sc(=S)n1-c1ccccc1 label_value=inactive
compound=CC(C)c1ccc(-c2nc(N3CCCCC3)[nH]c(=O)c2C#N)cc1 label_value=inactive
compound="CC1=C(C#N)C(c2ccoc2)C(C(=O)OCc2ccccc2)=C(N)S1 (stereo unspecified)" label_value=inactive
compound="COC(=O)C1C(=O)NCC1c1ccccc1 (stereo unspecified)" label_value=inactive
compound=CCCn1c(=N)n(CC(=O)c2cccs2)c2ccccc21 label_value=inactive
compound=CC(=O)N1CCc2cc(S(=O)(=O)CCC(=O)N3CCN(C(=O)c4ccco4)CC3)ccc21 label_value=inactive
compound=O=C(CCn1c(=O)oc2ccccc21)NCCN1CCc2ccccc2C1 label_value=inactive
compound=Cc1ccnc(NS(=O)(=O)c2ccc(N=CC3=C(O)CC(C)(C)CC3=O)cc2)n1 label_value=inactive
compound=COc1cccc(-n2c(C)nc3c(cnn3-c3ccc(Cl)cc3)c2=O)c1 label_value=inactive
compound=CC(C)(C)NC(=O)Cn1nnc(-c2cccs2)n1 label_value=inactive
compound="CC(C)OP(=O)(c1ccc(N(C)C)cc1)C(O)c1ccccc1F (stereo unspecified)" label_value=inactive
compound=CC(C)OC(=O)CSc1nnc(Cc2ccccc2)n1Cc1ccco1 label_value=inactive
compound=COc1cccc(CNC(=O)C2CCN(S(=O)(=O)c3ccc(F)cc3)CC2)c1 label_value=inactive
compound=Cc1cnc(C(=O)Nc2ccc(-n3cnnn3)cc2)cn1 label_value=inactive
compound=CN1CCN(CC(=O)Nc2ccc(Cl)cc2Cl)CC1 label_value=inactive
compound=CC(C)(C)N=C1NC(=NC(C)(C)C)c2ccccc21 label_value=inactive
compound=COc1ccc(CCNS(=O)(=O)c2ccc3c(c2)CCN3C(=O)CCC(=O)O)cc1OC label_value=inactive
compound=CCN(CC)S(=O)(=O)c1ccc(C(=O)Oc2ccc3c(c2)OCO3)cc1 label_value=inactive
compound=CCOc1ccc(C(=O)Cc2ccc3oc(C(=O)O)cc3c2)c(O)c1 label_value=inactive
compound=COc1ccc(N2CCN(C(=O)CSc3ccccc3N)CC2)cc1 label_value=inactive
compound=Cc1sc2ncnc(OCC(=O)N3CCN(S(=O)(=O)c4ccc(Cl)cc4)CC3)c2c1C label_value=inactive
compound=O=S(=O)(NCCSc1ccccc1)c1cccs1 label_value=inactive
compound=Cc1ccc(-c2nn(C)c(=O)c3ccccc23)cc1S(=O)(=O)N1CCOCC1 label_value=inactive
compound=O=P(O)(c1ccccc1)c1ccccc1O label_value=inactive
compound="O=S(=O)(c1ccc(OCC(O)CN2CCN(c3ccccc3)CC2)cc1)N1CCOCC1 (stereo unspecified)" label_value=inactive
compound=CCn1c(CNc2ccc(C)cc2)nnc1SCC(=O)NCc1ccccc1 label_value=inactive
compound=N#Cc1c(SCC(=O)N2CCOCC2)nsc1SCC(=O)N1CCOCC1 label_value=inactive
compound=CS(=O)(=O)N(CC(=O)NCc1ccccn1)c1ccc2c(c1)OCCO2 label_value=inactive
compound=CN(C(=O)c1c(Cl)nc2sccn12)C1CCCCC1 label_value=inactive
compound="CC(=O)NCC(=O)OC(C)C(=O)Nc1ccc(C(C)=O)cc1 (stereo unspecified)" label_value=inactive
compound=Cc1ccccc1C(=O)N1CCC(C(=O)Nc2ccc(S(=O)(=O)N3CCCC3)cc2)CC1 label_value=inactive
compound=Cc1cc(NC(=O)CSc2ccc3nnc(-c4cccc(F)c4)n3n2)no1 label_value=inactive
compound=Cc1ccccc1NC(=O)c1ccccc1 label_value=inactive
compound="CCOC(=O)N1CCC(NC(=O)C2CCCN2C(=O)OCc2ccccc2)CC1 (stereo unspecified)" label_value=inactive
compound=CN1CC(=O)Nc2ccc(F)cc2C1=O label_value=inactive
compound=O=C(Nc1cccnc1)Nc1ccc2c(c1)OCO2 label_value=inactive
compound=CCc1ccc2nc(NC(=O)CSCc3c(C)noc3C)sc2c1 label_value=inactive
compound=Cc1nnc(SCC(=O)NC(C)(C)C)n1CCc1ccccc1 label_value=inactive
compound=Cc1ncoc1C(=O)Nc1cccc(Cl)c1C label_value=inactive
compound="O=C(CN1C(=O)c2cccc3cccc1c23)NCC1CCCO1 (stereo unspecified)" label_value=inactive
compound=COc1ccccc1NC1=NC2(CCCC2)N=C(N)N1 label_value=inactive
